Target: T1, rhNav1.7α + β1-β2-β3 (rhesus monkey)
T1 construct: also called rhNav1.7-beta1-beta2-beta3; rhesus Nav1.7α
Assay: binding FACS, CHO FlpIn cells
Listed below: Bmax values for each entry.
observed property: Bmax

binder	measured
F010301884 (VHH, N53A vs F0103464B09 (Kabat)) VHH: EVQLVESGGGLVQPGGSLRLSCATTSRAFIRDVFTGWYRRVPGKERELVARIYAGGNTNYADFAKGRFSISRDNAKKMVTLRMSNLKPEDTGVYYCLFSGTINTGREYRSGDYWGQGTLVTVSS	47%
F010301886 (VHH, N58Q vs F0103464B09 (Kabat)) VHH: EVQLVESGGGLVQPGGSLRLSCATTSRAFIRDVFTGWYRRVPGKERELVARIYNGGNTQYADFAKGRFSISRDNAKKMVTLRMSNLKPEDTGVYYCLFSGTINTGREYRSGDYWGQGTLVTVSS	81%
F010302336 (VHH) VHH: EVQLVESGGGVVQPGGSLRLSCAASHRQFIRDVFTGWYRRAPGKQRELVARIYNEGNTQYADSAKGRFTISRDNAKKTVYLQMNSLRPEDTALYYCLFSGTISTGREYRSGDYWGQGTLVTVSS	79%
F010302354 (VHH) VHH: EVQLVESGGGVVQPGGSLRLSCAASHRAFIRDVFTGWYRRAPGKQRELVARIYESGNTQYADSVKGRFTISRDNAKKTVYLQMNSLRPEDTALYYCLFSGTISTGREYRSGDYWGQGTLVTVSS	96%
F010302351 (VHH) VHH: EVQLVESGGGVVQPGGSLRLSCAASSRQFIRDVFTGWYRRAPGKQRELVARIYESGNTQYADSVKGRFTISRDNAKKTVYLQMNSLRPEDTALYYCLFSGTISTGREYRSGDYWGQGTLVTVSS	72%
F010302352 (VHH) VHH: EVQLVESGGGVVQPGGSLRLSCAASHRQFIRDVFTGWYRRAPGKQRELVARIYNEGNTQYADSVKGRFTISRDNAKKTVYLQMNSLRPEDTALYYCLFSGTISTGREYRSGDYWGQGTLVTVSS	60%
F010302353 (VHH) VHH: EVQLVESGGGVVQPGGSLRLSCAASHRQFIRDVFTGWYRRAPGKQRELVARIYEGGNTQYADSVKGRFTISRDNAKKTVYLQMNSLRPEDTALYYCLFSGTISTGREYRSGDYWGQGTLVTVSS	93%
F010302360 (VHH) VHH: EVQLVESGGGVVQPGGSLRLSCAASHRQFIRDVFTGWYRQAPGKQRELVARIYNEGNTQYADSVKGRFTISRDNAKKTVYLQMNSLRPEDTALYYCLFSGTISTGREYRSGDYWGQGTLVTVSS	58%
